Biological target: human HM74a (Homo sapiens)
Test: GTPγS recruitment assay
Conditions: membranes of HEK293 cells transfected with human HM74a and Gα0; 35S GTPγS
ASSAY ENDPOINT: EC50

Entry `CCCCCn1c2nc(C(F)(F)F)[nH]c2c(=O)n2c(C)nnc12` — recorded EC50 = 80 nM

* * *

Biological target: human HM74a (Homo sapiens, UniProt Q8TDS4)
Sequence (Q8TDS4 whole entry): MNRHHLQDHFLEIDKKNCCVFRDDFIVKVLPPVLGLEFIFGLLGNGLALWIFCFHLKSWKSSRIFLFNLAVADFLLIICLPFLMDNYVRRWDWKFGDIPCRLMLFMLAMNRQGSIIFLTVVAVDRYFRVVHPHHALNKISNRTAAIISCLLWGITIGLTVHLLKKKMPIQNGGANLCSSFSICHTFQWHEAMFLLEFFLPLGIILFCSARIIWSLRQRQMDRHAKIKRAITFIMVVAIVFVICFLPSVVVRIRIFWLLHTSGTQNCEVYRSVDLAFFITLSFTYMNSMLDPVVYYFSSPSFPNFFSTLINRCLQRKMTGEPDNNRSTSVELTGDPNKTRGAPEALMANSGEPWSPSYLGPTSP
Assay: cAMP assay
Conditions: CHO cells stably transfected with human HM74a; 5 μM forskolin; inhibition relative to DMSO controls
ASSAY ENDPOINT: IC50 (nM)
Write the answer as a number in nM, unit excluded.

Entry CCCCCn1c2nc(C(F)(F)F)[nH]c2c(=O)n2c(C)nnc12 [Example 1] — recorded IC50 = 20
